assay: gradient 5% acetonitrile 3 min, to 50% in 2 min, to 85% in 15 min, held 3 min, 100 µL/min; conditions: column: Zorbax Extend-C18 2.1 x 50 mm; eluents: water / acetonitrile, 0.1% formic acid
Define the label as T when RP-LC retention time is strictly less than 700 s and as F in all remaining cases.

Illustrative cases are given below, each with its answer.
CCCN1C(=O)C(NC(=O)c2ccccc2OC)(C(F)(F)F)C(C(=O)OC)=C1C (stereo not given) = F
O=C(Nc1nnc(Cc2ccccc2)s1)C1CC(=O)N(c2n[nH]c3ccccc23)C1 (stereo not given) = F
CC(C)(C)C(=O)Nc1cnc(N2CCNCC2)c(C(=O)N2CCCC2)c1 = T

Problem: Below 700 s on RP-LC retention time? Entry CC(=O)N1CCc2ccccc2C1C(=O)NCc1ccc(C)c(C)c1 (stereo not given)
Result: F

Problem: RP-LC retention time under 700 s? Item: CN(C)c1ccc(/C=C2\C(=O)Nc3ccccc32)cc1
Result: F

Problem: hey, is RP-LC retention time for Cc1ccc(NC(=O)Cn2cnc3nc(-c4cccnc4)ncc3c2=O)cc1F lower than 700 s or not?
Result: T

Problem: Bench note: check whether O=C(c1cccc(Br)c1)N1CCN(c2cc(-c3ccc(F)cc3)[nH]n2)CC1 shows RP-LC retention time below 700 s
Result: F

Problem: Does this compound meet the criterion RP-LC retention time < 700 s? CC(C)CNC(=O)c1n[nH]c2c1CCCCCC2
Result: F

The measurements presented in this section are drawn from the METLIN SMRT retention time set (Domingo-Almenara et al. 2019).
